- System: β-adrenoreceptor
- method notes: β-adrenergic blocking activity in anesthetized dogs: antagonism (Inhibition %) of isoprenaline-induced responses
- Assay type: in vivo, dog
- test conditions: 300 μg/kg i.v., 10 minutes after, isoprenaline 1 μg/kg i.v., heart rate
Counter-ions that a name gives are not always drawn.
Param threshold (40%) applies to Inhibition (%) HR (antagonism to the increase in heart rate induced by isoprenaline); output satisfied when value >= threshold, not satisfied when value < threshold.

{"molecule": "COc1ccc(CCNCC(O)COc2cccc3c2CCC(=O)N3)cc1OC (centres unmarked) [compound 13, hydrochloride, reference compound]", "answer label": "satisfied"}
{"molecule": "COc1ccc(CCNCC(O)COc2c(NC(C)=O)ccc3c2CCC(=O)N3)cc1OC (centres unmarked) [compound 6]", "answer label": "not satisfied"}
{"molecule": "Cc1ccc(S(=O)(=O)Nc2ccc(OCC(O)CNCCOc3ccc(C(N)=O)cc3)c3c2NC(=O)CC3)cc1 (centres unmarked) [compound 7]", "answer label": "not satisfied"}
{"molecule": "CCOC(=O)Nc1ccc(OCC(O)CNCCOc2ccc(C(N)=O)cc2)c2c1NC(=O)CC2 (centres unmarked) [compound 4]", "answer label": "satisfied"}
{"molecule": "COc1ccc(CCNCC(O)COc2ccc(NC(C)=O)c3c2CCC(=O)N3)cc1OC (centres unmarked) [compound 2]", "answer label": "not satisfied"}
{"molecule": "CC(=O)Nc1ccc2c(c1OCC(O)CNC(C)C)CCC(=O)N2 (centres unmarked) [compound 1]", "answer label": "not satisfied"}
{"molecule": "NC(=O)Nc1ccc(OCC(O)CN2CCN(c3ccccc3Cl)CC2)c2c1NC(=O)CC2 (centres unmarked) [compound 9]", "answer label": "not satisfied"}

###

# maps each entry to its Inhibition (%) HR (antagonism to the increase in heart rate induced by isoprenaline)
- Test system: β-adrenoreceptor
- method notes: β-adrenergic blocking activity in anesthetized dogs: antagonism (Inhibition %) of isoprenaline-induced responses
- Type: in vivo, dog
- test conditions: 300 μg/kg i.v., 10 minutes after, isoprenaline 1 μg/kg i.v., heart rate
Counter-ions that a name gives are not always drawn.
parameter measured: Inhibition (%) HR (antagonism to the increase in heart rate induced by isoprenaline)

{"molecule": "COc1ccccc1N1CCN(CC(O)COc2ccc(NC(C)=O)c3c2CCC(=O)N3)CC1 (stereo not shown)", "meas value": "21.7%"}
{"molecule": "CC(NCC(O)COc1ccc(NC(=O)C2CCCCC2)c2c1CCC(=O)N2)c1ccccc1 (stereo not shown)", "meas value": "53.3%"}
{"molecule": "Cc1ccccc1N1CCN(CC(O)COc2ccc(NS(C)(=O)=O)c3c2CCC(=O)N3)CC1 (stereo not shown)", "meas value": "21.0%"}
{"molecule": "CC(C)(C)NCC(O)COc1cccc2c1CCC(=O)N2 (stereo not shown) [compound 11, hydrochloride, reference compound]", "meas value": "100%"}

###

- method notes: acute toxicity (LD50) by intravenous and oral administration
- test conditions: rat, in vivo, po, female rats; p.o.; fasted 12 hours; read-out: LD50 p.o.

{"compound": "COc1ccc(CCNCC(O)COc2ccc(NC(C)=O)c3c2CCC(=O)N3)cc1OC (stereo not shown) [compound 2]", "LD50": "1230 mg/kg"}

###

- method notes: acute toxicity (LD50) by intravenous and oral administration
- test conditions: rat, in vivo, iv, female rats; i.v.; fasted 12 hours; read-out: LD50 i.v.
parameter measured: LD50 (mg/kg)

{"compound": "COc1ccc(CCNCC(O)COc2ccc(NC(C)=O)c3c2CCC(=O)N3)cc1OC (stereo not shown)", "meas value": 142}
